# Test system: Plasmodium falciparum
# procedure-text: ST_JUDE: Cytotoxicity against Plasmodium falciparum K1
# Assay type: functional, organism-based
pEC50: −log10 of the molar value.
measure: pEC50

compound="COc1ccc(C2CC(=O)NC3=C2C(=O)CC(c2ccc(F)cc2)C3)cc1OC (centres undefined)" measure=pEC50 endpoint_result=5.93
compound=CCOc1ccc(Nc2cc(C)c3ccc(O)cc3n2)cc1 measure=pEC50 endpoint_result=6.80
compound=C/C=C/c1n(C)c2ccccc2[n+]1C measure=pEC50 endpoint_result=6.00
compound="COc1ccc(C2CC(=O)C3=C(C2)NC(=O)CC3c2ccc(C(F)(F)F)cc2)cc1OC (centres undefined)" measure=pEC50 endpoint_result=5.80
compound=CCc1nc2nc(C)cc(Nc3ccc(I)cc3)n2n1 measure=pEC50 endpoint_result=6.19
compound=COc1ccccc1/N=C1\C=C(NS(=O)(=O)c2ccc(C(C)C)cc2)c2ccccc2C1=O measure=pEC50 endpoint_result=6.54
compound="CCOc1cc2c(cc1OCC)C(c1cc(Cl)ccc1O)NCC2 (centres undefined)" measure=pEC50 endpoint_result=6.14
compound=CC[n+]1ccccc1C=Cc1ccc(N(C)C)cc1 measure=pEC50 endpoint_result=5.94
compound="CCO/C(O)=C1\\C(C)=NC2=C(C(=O)CC(c3ccc(OC)c(OC)c3)C2)C1c1ccccc1C (centres undefined)" measure=pEC50 endpoint_result=6.92

###

# Tested on: Trypanosoma brucei
# procedure-text: ST_JUDE: Cytotoxicity using luciferase to measure ATP as an indicator of the viability of Trypanosoma brucei
# Type: functional, organism-based
Reported EC50 is given for each of the following molecules.
measure: EC50

molecule=Oc1ccc(Br)cc1CN1CCN(Cc2ccccc2)CC1 measure=EC50 endpoint_result="> 26 µM"
molecule=Cc1cccc(N2CCN(Cc3cc(Br)ccc3O)CC2)c1C measure=EC50 endpoint_result="> 26.7 µM"
molecule=C[n+]1ccccc1/C=C/c1ccc([N+](=O)[O-])cc1 measure=EC50 endpoint_result="> 32.4 µM"
molecule="CO/C(O)=C1\\C(C)=NC2=C(C(=O)CC(c3ccc(OC)c(OC)c3)C2)C1c1ccccc1F (stereo unspecified)" measure=EC50 endpoint_result="> 42.9 µM"
molecule=COc1ccc(Nc2cc(C)c3ccc(O)cc3n2)cc1 measure=EC50 endpoint_result="> 45.4 µM"
molecule="COc1ccc(C2CC(=O)C3=C(C2)NC(=O)CC3c2ccc(C(F)(F)F)cc2)cc1OC (stereo unspecified)" measure=EC50 endpoint_result="> 45.5 µM"

###

# Test system: Plasmodium falciparum
# procedure-text: ST_JUDE: Plasmodium falciparum 3D7 EC50 (uM) as measured by SYBR green dye
# Assay type: functional, organism-based
Reported EC50 is given for each of the following compounds.
measure: EC50

compound="CC(C)OCCNC(=O)CC1C(=O)NCCN1Cc1cccc(C(F)(F)F)c1 (stereo not given)" system="Plasmodium falciparum" endpoint_result="> 15 µM"
compound="CCCOc1cc(Br)c(C2NC(S)=NC(c3ccccc3)=C2C(C)=O)cc1OCC (stereo not given)" system="Plasmodium falciparum" endpoint_result="> 15 µM"
compound=CCc1ccc2nc(N(Cc3cccnc3)C(C)=O)sc2c1 system="Plasmodium falciparum" endpoint_result="> 15 µM"
compound="CCOc1ccc(NC(=O)C2Sc3nnc(-c4ccccc4)n3NC2c2ccc(OC)cc2)cc1 (stereo not given)" system="Plasmodium falciparum" endpoint_result="> 15 µM"
compound=O=C(O)c1ccc(NC2=C(n3nnc4ccccc43)C(=O)c3ccccc3C2=O)cc1 system="Plasmodium falciparum" endpoint_result="> 15 µM"

###

Reported pEC50 is given for each of the following compounds.
# System: Plasmodium falciparum
# procedure-text: ST_JUDE: Plasmodium falciparum 3D7 EC50 (uM) as measured by SYBR green dye
# Assay type: functional, organism-based
pEC50: −log10 of the molar value.
measure: pEC50

compound=CCOC(=O)C1CCN(C(=O)CN(Cc2ccc(Cl)cc2)S(=O)(=O)c2ccc(C)cc2)CC1 system="Plasmodium falciparum" measure=pEC50 endpoint_result="< 4.82"
compound=Cc1ccc2nc(-c3cccnc3)cc(C(=O)Nc3ccc(S(=O)(=O)NC(C)(C)C)cc3)c2c1 system="Plasmodium falciparum" measure=pEC50 endpoint_result="< 4.82"
compound="CC(=O)N1N=C2C3CCN(CC3)C2C1c1ccc(Br)cc1 (stereo unspecified)" system="Plasmodium falciparum" measure=pEC50 endpoint_result="< 4.82"
compound=CCCN(CCC)CCCNC(=O)c1ccc2c(Cl)c3c(nc2c1)CCCC3 system="Plasmodium falciparum" measure=pEC50 endpoint_result="< 4.82"
compound=CCOC(=O)C1=CN(Cc2ccc(F)cc2)C=C(C(=O)OCC)C1c1cc(OC)c(OC)c(OC)c1 system="Plasmodium falciparum" measure=pEC50 endpoint_result="< 4.82"
compound="CC(=O)NCC(=O)NC1CC(C)(C)Cc2c1cnn2-c1ccccc1 (stereo unspecified)" system="Plasmodium falciparum" measure=pEC50 endpoint_result="< 4.82"
compound="CC(C)CC(=O)NC(c1ccc(Cl)cc1Cl)c1ccc2cccnc2c1O (stereo unspecified)" system="Plasmodium falciparum" measure=pEC50 endpoint_result="< 4.82"
compound="COc1ccc(C2CC(=O)C3=C(C2)NC(=O)CC3c2ccc(C(F)(F)F)cc2)cc1OC (stereo unspecified)" system="Plasmodium falciparum" measure=pEC50 endpoint_result=6.22
compound=O=C(Nc1cccc(Br)c1)c1cc2ccccc2cc1O system="Plasmodium falciparum" measure=pEC50 endpoint_result="< 4.82"
compound="COc1ccc(N2CCN(C(CNC(=O)c3ccc(C(C)(C)C)cc3)c3ccco3)CC2)cc1 (stereo unspecified)" system="Plasmodium falciparum" measure=pEC50 endpoint_result="< 4.82"
compound=CCOc1ccc2nc(C)cc(Nc3cccc(OC)c3)c2c1 system="Plasmodium falciparum" measure=pEC50 endpoint_result=5.47
compound="COc1cccc(NC(=O)C2c3ccccc3C(=O)N(CC(C)C)C2c2cccs2)c1 (stereo unspecified)" system="Plasmodium falciparum" measure=pEC50 endpoint_result=6.76
compound=Cc1cccc(NC(=O)CSc2nc3c4ccccc4nc-3c(O)n2-c2ccc([N+](=O)[O-])cc2)c1 system="Plasmodium falciparum" measure=pEC50 endpoint_result="< 4.82"
compound="Oc1ccc(C2NCc3ccccc3-n3cccc32)cc1Cl (stereo unspecified)" system="Plasmodium falciparum" measure=pEC50 endpoint_result=5.90
compound=CCOC(=O)c1cnc2c(C(F)(F)F)cccc2c1Nc1cc(C)ccc1O system="Plasmodium falciparum" measure=pEC50 endpoint_result=5.60
compound="CCCC(=O)NC(c1ccc(N(CC)CC)cc1)c1cc(Cl)c2cccnc2c1O (stereo unspecified)" system="Plasmodium falciparum" measure=pEC50 endpoint_result=6.07
compound=COc1ccc(OC)c(N2C(=O)c3cccc4c([N+](=O)[O-])ccc(c34)C2=O)c1 system="Plasmodium falciparum" measure=pEC50 endpoint_result="< 4.82"
compound="Cc1ccnc(N2C(=O)c3ccccc3C2Nc2ccccc2C)c1 (stereo unspecified)" system="Plasmodium falciparum" measure=pEC50 endpoint_result="< 4.82"
compound=C#CCN(CC=C)Cc1nc(-c2cc(OC)ccc2OC)oc1C system="Plasmodium falciparum" measure=pEC50 endpoint_result="< 4.82"
compound="Cc1ccc(NC(=O)C2c3ccccc3C(=O)N(CC(C)C)C2c2cccs2)cc1C (stereo unspecified)" system="Plasmodium falciparum" measure=pEC50 endpoint_result=7.20
compound=CCc1cc2c(=O)c(Oc3ccc(Cl)cc3)coc2cc1OC(C)=O system="Plasmodium falciparum" measure=pEC50 endpoint_result="< 4.82"

###

# procedure-text: ST_JUDE: Cytotoxicity using luciferase to measure ATP as an indicator of the viability of human epithelial hepatocellular carcinoma cells (HepG2)
# Assay type: toxicity, cell-based
pEC50: −log10 of the molar value.
measure: pEC50

molecule="COc1ccc(C2CC(=O)C3=C(C2)NC(=O)CC3c2ccc(C(F)(F)F)cc2)cc1OC (configuration not stated)" endpoint_result="< 4.32"
molecule="CC1=NC2=C(C(=O)CC(c3ccc(Cl)cc3)C2)C(c2ccc(F)cc2)/C1=C(\\O)OC(C)C (configuration not stated)" endpoint_result="< 4.40"
molecule="CCc1ccccc1NC(=O)C1c2ccccc2C(=O)N(CC(C)C)C1c1cccs1 (configuration not stated)" endpoint_result="< 4.37"
molecule="CC(C)(C)NC(=O)c1cn(C2CCCCC2)cc(C(=O)NC2CCN(Cc3ccccc3)C2)c1=O (configuration not stated)" endpoint_result="< 4.54"
molecule=Oc1ccc(Br)cc1CN1CCN(Cc2ccccc2)CC1 endpoint_result="< 4.57"
molecule=CCn1nc(-c2ccc(C(F)(F)F)cc2)nc2c(=O)n(C)c(=O)nc1-2 endpoint_result=5.54
molecule=O=S(=O)(c1ccc(Cl)cc1)N1CCN(C(=S)NCc2ccco2)CC1 endpoint_result="< 4.52"

###

# procedure-text: ST_JUDE: Cytotoxicity using luciferase to measure ATP as an indicator of the viability of human epithelial hepatocellular carcinoma cells (HepG2)
# Format: toxicity, cell-based
pEC50: −log10 of the molar value.
Reported pEC50 is given for each of the following molecules.
measure: pEC50

molecule=CCOc1ccc2nc(C)cc(Nc3ccc(Cl)cc3)c2c1 endpoint_result=5.14
molecule=CCc1ccc(S(=O)(=O)NC2=C/C(=N\c3ccccc3)C(=O)c3ccccc32)cc1 endpoint_result=5.37
molecule=O=[N+]([O-])c1ccc2c(c1)c1ccccc1n2Cc1ccccc1O endpoint_result="< 4.45"
molecule="CCCCCCn1c(=N)n(CC(O)COc2ccccc2C)c2ccccc21 (stereo not drawn)" endpoint_result=5.16
molecule="CCOC(=O)C1=C(C)N=c2s/c(=C\\c3cc(Cl)ccc3O)c(=O)n2C1c1ccc(N(C)C)cc1 (stereo not drawn)" endpoint_result="< 4.74"
molecule=CC(C)c1ccccc1Oc1c(C(F)(F)F)oc2c(CN3CCN(C)CC3)c(O)ccc2c1=O endpoint_result="< 4.68"
molecule=CCCN(C(=O)C(=O)Nc1ccc2nc3n(c(=O)c2c1)CCCCC3)c1ccc(OCC)cc1 endpoint_result="< 4.33"
molecule="COCCO/C(O)=C1\\C(C)=NC2=C(C(=O)CC(c3ccc(OC)c(OC)c3)C2)C1c1ccc(F)cc1 (stereo not drawn)" endpoint_result="< 4.37"
molecule=CCN(CC)Cc1cc(Nc2ccnc3cc(Cl)ccc23)ccc1O endpoint_result="< 4.40"
molecule="CC(C)c1ccc(CNCC(O)c2ccccc2)cc1 (stereo not drawn)" endpoint_result="< 4.28"
molecule=Cc1ccc(NC(=O)c2c(I)cnn2C)cc1[N+](=O)[O-] endpoint_result="< 4.34"
molecule="CCCCn1c(=N)n(CC(O)c2ccc(Br)cc2)c2ccccc21 (stereo not drawn)" endpoint_result=4.72
molecule=Cc1ccc2c(c1)N(C)/C(=C/c1sc3ccccc3[n+]1CCO)S2 endpoint_result="< 4.71"
molecule=CCOc1ccc2nc3cc(N)ccc3c(N)c2c1 endpoint_result="< 4.49"
molecule="COc1cc(C2CC(=O)NC3=C2C(=O)CC(c2ccccc2Cl)C3)cc(Br)c1O (stereo not drawn)" endpoint_result="< 4.27"
molecule="CCOc1ccc(NC(=O)C2c3ccccc3C(=O)N(CC(C)C)C2c2cccs2)cc1 (stereo not drawn)" endpoint_result="< 4.37"
molecule=COC(=O)C1=CNC=C(C(=O)OC)C1c1ccc(Cl)c(Cl)c1 endpoint_result="< 4.34"
molecule=O=C(Nc1cccc(Cl)c1N1CCOCC1)C(Cl)(Cl)Cl endpoint_result="< 4.52"
